System: Chloroquine resistance transporter (Plasmodium falciparum), Q9N623 [K76T]
Sequence (Q9N623 whole entry K76T): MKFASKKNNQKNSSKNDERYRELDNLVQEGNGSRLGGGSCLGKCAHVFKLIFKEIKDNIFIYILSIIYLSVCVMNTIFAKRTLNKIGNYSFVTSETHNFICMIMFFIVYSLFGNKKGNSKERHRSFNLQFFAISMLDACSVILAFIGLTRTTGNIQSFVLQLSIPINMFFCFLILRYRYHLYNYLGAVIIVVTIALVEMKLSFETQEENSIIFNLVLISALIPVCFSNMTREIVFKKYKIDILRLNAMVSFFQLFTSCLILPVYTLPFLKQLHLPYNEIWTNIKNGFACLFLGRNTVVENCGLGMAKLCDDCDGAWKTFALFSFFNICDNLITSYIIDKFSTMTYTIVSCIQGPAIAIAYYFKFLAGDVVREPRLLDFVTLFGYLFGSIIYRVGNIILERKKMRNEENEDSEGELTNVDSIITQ
Experiment: Inhibition of CRT K76T mutant in chloroquine/artemisinin-resistant Plasmodium falciparum ARS233 assessed as reversal of chloroquine resistance by measuring reduction in chloroquine IC50 at 500 nM relative to chloroquine alone

# compound, Ratio IC50
records = [
    ("NCC(CCN1CCC(O)CC1)(c1ccccc1)c1ccccc1", 0.9),
    ("NC(=O)C(CCN1CCC(O)(c2ccc(Cl)cc2)CC1)(c1ccccc1)c1ccccc1", 0.91),
    ("c1ccc2c(c1)CC(N1CCNCC1)c1ccccc1S2 (stereo unspecified)", 0.64),
    ("N[C@@H]1C2CCN(CC2)[C@@H]1C(c1ccccc1)c1ccccc1 (relative stereo)", 0.97),
    ("N#CC(CCN1CCCCC1)(c1ccccc1)c1ccccc1", 0.7),
    ("Ic1ccccc1CN[C@@H]1C2CCN(CC2)[C@@H]1C(c1ccccc1)c1ccccc1", 0.2),
]
